Here, each record is paired with measured Relative initial rate of hydrolysis (%) data.
# System: BglC (beta-glucosidase of Streptomyces scabies 87-22)
# assay: Relative enzyme activity of BglC with p-NPβG as substrate in presence of tested reagent
# Type: biochemical
# condition: Oses (15%); control = 100%; p-NPβG substrate

# mol, Relative initial rate of hydrolysis (%)
records = [
    ("O=C[C@H](O)[C@@H](O)[C@H](O)CO", 340),
    ("O=C[C@H](O)[C@@H](O)[C@@H](O)[C@H](O)CO", 255),
    ("OC[C@@H](O)[C@@H](O)[C@H](O)[C@@H](O)CO", 202),
    ("O=C(CO)[C@@H](O)[C@H](O)[C@H](O)CO", 178),
]

====

# Tested on: BglC (beta-glucosidase of Streptomyces scabies 87-22)
# assay: Relative enzyme activity of BglC with p-NPβG as substrate in presence of tested reagent
# Assay type: biochemical
# condition: reagent 10 mM; activity without additive = 100%

# compound, Relative initial rate of hydrolysis (%)
rows = [
    ("O[C@H](CS)[C@H](O)CS (racemic)", 116),
    ("O=C(O)CN(CCN(CC(=O)O)CC(=O)O)CC(=O)O", 98),
    ("NC(N)=O", 103),
    ("CCCCCCCCCCCCOS(=O)(=O)[O-].[Na+]", 64),
]
